# Target Under Test: human A2AAR (Homo sapiens, UniProt P29274)
# Construct: expressed in transfected cells; host or cells: HEK293 cells stably expressing the human A2AAR
# Sequence (P29274 whole entry): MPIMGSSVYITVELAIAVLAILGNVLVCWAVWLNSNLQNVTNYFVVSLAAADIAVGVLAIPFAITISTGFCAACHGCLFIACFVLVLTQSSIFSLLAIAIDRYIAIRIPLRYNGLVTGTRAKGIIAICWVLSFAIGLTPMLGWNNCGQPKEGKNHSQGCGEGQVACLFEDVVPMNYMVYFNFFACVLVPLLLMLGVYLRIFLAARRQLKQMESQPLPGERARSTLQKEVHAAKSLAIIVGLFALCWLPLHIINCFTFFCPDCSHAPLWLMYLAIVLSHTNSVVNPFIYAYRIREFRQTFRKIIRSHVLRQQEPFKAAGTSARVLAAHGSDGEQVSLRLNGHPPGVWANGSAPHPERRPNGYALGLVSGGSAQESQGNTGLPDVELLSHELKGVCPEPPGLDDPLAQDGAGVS
# Experimental Details: [^3H]ZM241385 radioligand binding, HEK293 membranes
# Settings: WT receptor, 1 nM [^3H]ZM241385, membranes, 25 °C, 60 min
Attribute Measured: Ki (nM)

CCCn1c(=O)c2[nH]c(-c3ccc(OCC(=O)NCCNC(=O)CCNC(=O)CCCCNC(=O)CCCCCNC(=O)c4ccc(-c5c6ccc(=N)c(S(=O)(=O)O)c-6oc6c(S(=O)(=O)O)c(N)ccc56)c(C(=O)O)c4)cc3)nc2n(CCC)c1=O; 388
N#Cc1c(N)nc(SCc2ncc[nH]2)c(C#N)c1-c1ccc(O)cc1 [LUF5834, reference compound]; 13.3
NC(N)=NC(=O)c1nc(Cl)c(N2CCCCCC2)nc1N [HMA, 5-(N,N-hexamethylene)amiloride, reference compound]; 3050

(I) N=c1ccc2c(-c3ccc(C(=O)NCCCCNC(=O)COc4ccc(CCCn5ncc6c5nc(N)n5nc(-c7ccco7)nc65)cc4)cc3C(=O)O)c3ccc(N)c(S(=O)(=O)O)c3oc-2c1S(=O)(=O)O
(II) Nc1nc2c(cnn2CCCc2ccc(OCc3ccc(S(=O)(=O)O)cc3)cc2)c2nc(-c3ccco3)nn12
(III) CCCn1c(=O)c2[nH]c(-c3ccc(OCC(=O)NCCNC(=O)CCCCCNC(=O)COc4ccc(/C=C/C5=[N+]6C(=Cc7ccc(-c8cccs8)n7[B-]6(F)F)C=C5)cc4)cc3)nc2n(CCC)c1=O [XAC630, reference compound]
(IV) CCCn1c(=O)c2[nH]c(-c3ccc(OCC(=O)NCCNC(=O)CCNC(=O)CCCCNC(=O)CCCCCN)cc3)nc2n(CCC)c1=O
(V) Nc1nc2c(cnn2CCCc2ccc(OCC(=O)NCCCCNC(=O)CCCCCNC(=O)COc3ccc(/C=C/C4=[N+]5C(=Cc6ccc(-c7cccs7)n6[B-]5(F)F)C=C4)cc3)cc2)c2nc(-c3ccco3)nn12
Data request: Descending sort on Ki required. Please write the labels in the order that was asked for.
Data returned: IV, III, I, II, V

====

# Target Under Test: human A2AAR (Homo sapiens)
# Construct: expressed in transfected cells; host or cells: HEK293 cells stably expressing the human A2AAR
# Experimental Details: Fluorescent ligand MRS7416 binding to intact HEK293 cells (flow cytometry)
# Settings: displacement of 15 nM fluorescent MRS7416, intact cells, 37 °C, 60 min
Attribute Measured: Ki (nM)

N#Cc1c(N)nc(SCc2ncc[nH]2)c(C#N)c1-c1ccc(O)cc1 [LUF5834, reference compound]; 23

(I) CCCn1c(=O)c2[nH]c(-c3ccc(OCC(=O)NCCNC(=O)CCNC(=O)CCCCNC(=O)CCCCCN)cc3)nc2n(CCC)c1=O
(II) Nc1nc2c(cnn2CCCc2ccc(OCC(=O)NCCCCNC(=O)CCCCCNC(=O)COc3ccc(/C=C/C4=[N+]5C(=Cc6ccc(-c7cccs7)n6[B-]5(F)F)C=C4)cc3)cc2)c2nc(-c3ccco3)nn12
Data request: Between item I and item II , which reported Ki is smaller? Refer to your chosen item by its label in the answer.
Data returned: I
(I: 152 nM, II: 256 nM)

====

# Target Under Test: human A2AAR (Homo sapiens)
# Construct: expressed in transfected cells; host or cells: HEK293 cells stably expressing the human A2AAR
# Experimental Details: [^3H]CGS21680 radioligand binding, HEK293 membranes
# Settings: 5 nM [^3H]CGS21680, membranes, 25 °C, 60 min
Attribute Measured: Ki (nM)

# count of solved cases: 4
NC(N)=NC(=O)c1nc(Cl)c(N2CCCCCC2)nc1N [HMA, 5-(N,N-hexamethylene)amiloride, reference compound]; 2120
Nc1nc2c(cnn2CCCc2ccc(OCC(=O)NCCCCNC(=O)CCCCCNC(=O)COc3ccc(/C=C/C4=[N+]5C(=Cc6ccc(-c7cccs7)n6[B-]5(F)F)C=C4)cc3)cc2)c2nc(-c3ccco3)nn12 [MRS7396]; 2.83
CCCn1c(=O)c2[nH]c(-c3ccc(OCC(=O)NCCNC(=O)CCCCCNC(=O)COc4ccc(/C=C/C5=[N+]6C(=Cc7ccc(-c8cccs8)n7[B-]6(F)F)C=C5)cc4)cc3)nc2n(CCC)c1=O [XAC630, reference compound]; 29
Nc1nc2c(cnn2CCCc2ccc(OCc3ccc(S(=O)(=O)O)cc3)cc2)c2nc(-c3ccco3)nn12 [MRS7352]; 4.98

(P) CCCn1c(=O)c2[nH]c(-c3ccc(OCC(=O)NCCNC(=O)CCNC(=O)CCCCNC(=O)CCCCCNC(=O)c4ccc(-c5c6ccc(=N)c(S(=O)(=O)O)c-6oc6c(S(=O)(=O)O)c(N)ccc56)c(C(=O)O)c4)cc3)nc2n(CCC)c1=O [XAC488]
(Q) CCCn1c(=O)c2[nH]c(-c3ccc(OCC(=O)NCCNC(=O)CCNC(=O)CCCCNC(=O)CCCCCN)cc3)nc2n(CCC)c1=O [XAC245]
(R) N=c1ccc2c(-c3ccc(C(=O)NCCCCNC(=O)COc4ccc(CCCn5ncc6c5nc(N)n5nc(-c7ccco7)nc65)cc4)cc3C(=O)O)c3ccc(N)c(S(=O)(=O)O)c3oc-2c1S(=O)(=O)O [MRS7416]
Data request: Descending sort on Ki required. Please write the labels in the order that was asked for.
Data returned: P, Q, R
(P: 438 nM, Q: 220 nM, R: 16.4 nM)

====

# Target Under Test: human A2AAR (Homo sapiens, UniProt P29274)
# Construct: expressed in transfected cells; host or cells: HEK293 cells stably expressing the human A2AAR
# Experimental Details: cAMP accumulation assay, antagonism of CGS21680 with Schild analysis
# Format: cell-based
# Settings: Schild analysis, CGS21680-induced cAMP, antagonist pretreatment 20 min; read-out: Functional Antagonism KB
Attribute Measured: Kb (nM)

# count of solved cases: 3
N=c1ccc2c(-c3ccc(C(=O)NCCCCNC(=O)COc4ccc(CCCn5ncc6c5nc(N)n5nc(-c7ccco7)nc65)cc4)cc3C(=O)O)c3ccc(N)c(S(=O)(=O)O)c3oc-2c1S(=O)(=O)O; 9.11
Nc1nc2c(cnn2CCCc2ccc(OCC(=O)NCCCCNC(=O)CCCCCNC(=O)COc3ccc(/C=C/C4=[N+]5C(=Cc6ccc(-c7cccs7)n6[B-]5(F)F)C=C4)cc3)cc2)c2nc(-c3ccco3)nn12; 1.7
CCCn1c(=O)c2[nH]c(-c3ccc(OCC(=O)NCCNC(=O)CCCCCNC(=O)COc4ccc(/C=C/C5=[N+]6C(=Cc7ccc(-c8cccs8)n7[B-]6(F)F)C=C5)cc4)cc3)nc2n(CCC)c1=O [XAC630, reference compound]; 51.1

(1) Nc1nc2c(cnn2CCCc2ccc(OCc3ccc(S(=O)(=O)O)cc3)cc2)c2nc(-c3ccco3)nn12
(2) CCCn1c(=O)c2[nH]c(-c3ccc(OCC(=O)NCCNC(=O)CCNC(=O)CCCCNC(=O)CCCCCN)cc3)nc2n(CCC)c1=O
(3) CCCn1c(=O)c2[nH]c(-c3ccc(OCC(=O)NCCNC(=O)CCNC(=O)CCCCNC(=O)CCCCCNC(=O)c4ccc(-c5c6ccc(=N)c(S(=O)(=O)O)c-6oc6c(S(=O)(=O)O)c(N)ccc56)c(C(=O)O)c4)cc3)nc2n(CCC)c1=O
Data request: Descending sort on Kb required. Please write the labels in the order that was asked for.
Data returned: 3, 2, 1

====

# Target Under Test: human A2AAR (Homo sapiens, UniProt P29274)
# Experimental Details: Fluorescent ligand MRS7416 binding to intact HEK293 cells (flow cytometry)
# Settings: saturation binding, intact cells, n = 6; read-out: Kd value from MRS7416 saturation experiments
Attribute Measured: pKd
Scale: pKd equals -log10([C]), with [C] in mol/L.

Data request: Query pKd for N=c1ccc2c(-c3ccc(C(=O)NCCCCNC(=O)COc4ccc(CCCn5ncc6c5nc(N)n5nc(-c7ccco7)nc65)cc4)cc3C(=O)O)c3ccc(N)c(S(=O)(=O)O)c3oc-2c1S(=O)(=O)O
Data returned: 7.75
